test: Increase in solubility of spironolactone in aqueous solution at pH 6.8, 25° C.; type: physicochemical; settings: pH 6.8, aqueous buffer, without solubilizing agent
observable: solubility

Return solubility for the following molecule: CC(=O)S[C@@H]1CC2=CC(=O)CC[C@]2(C)[C@H]2CC[C@@]3(C)[C@@H](CC[C@@]34CCC(=O)O4)[C@H]12
~38 µg/mL

Attribution: patent US8652523B2
